Values were extracted from paper PMC8889123.

reported.property: IC50 (nM)
Please respond with the number in nM and leave the unit unwritten.

For the record O=C(O)[C@@H]1[C@H](C(=O)O)[C@H]2CC[C@@H]1O2 [endothall] , what value of IC50 is listed for Ser/Thr protein phosphatase 5 (PbPP5) (Plasmodium berghei, UniProt A0A509AMH5)?
365

For the record C[C@@]12C(=O)OC(=O)[C@]1(C)[C@H]1CC[C@@H]2O1 , what value of IC50 is listed for Ser/Thr protein phosphatase 5 (PbPP5) (Plasmodium berghei, UniProt A0A509AMH5)?
74.3

For the record C=C1[C@@H](O)[C@@H]2O[C@]3(CC[C@H](/C=C/[C@@H](C)[C@@H]4CC(C)=C[C@@]5(O[C@H](C[C@@](C)(O)C(=O)O)CC[C@H]5O)O4)O3)CC[C@H]2O[C@@H]1[C@@H](O)C[C@H](C)[C@H]1O[C@@]2(CCCCO2)CC[C@H]1C , what value of IC50 is listed for Ser/Thr protein phosphatase 5 (PbPP5) (Plasmodium berghei, UniProt A0A509AMH5)?
1.3

For the record C[C@]1(C(=O)O)[C@@H]2CC[C@@H](O2)[C@@]1(C)C(=O)O , what value of IC50 is listed for Ser/Thr protein phosphatase 5 (PbPP5) (Plasmodium berghei, UniProt A0A509AMH5)?
122
